Settings: 282.65 K; 101.33 kPa; Liquid; Pulse-echo method
Readings of speed of sound for the listed molecules
Observation Type: speed of sound (m/s)

[[record]]
molecule = "CC(C)C(=O)[O-].C[NH2+]CCO [2-hydroxy-N-methylethanaminium isobutyrate]"
recorded_measurement = 1656.2

[[record]]
molecule = "C[NH2+]CCO.O=C[O-] [2-hydroxy-N-methylethanaminium formate]"
recorded_measurement = 1845.8

[[record]]
molecule = "CCC(=O)[O-].C[NH2+]CCO [2-hydroxy-N-methylethanaminium propionate]"
recorded_measurement = 1737.4

[[record]]
molecule = "CCCC(=O)[O-].C[NH2+]CCO [N-methyl-2-hydroxyethylammonium butanoate]"
recorded_measurement = 1666.6

[[record]]
molecule = "CCCCC(=O)[O-].C[NH2+]CCO [2-hydroxy-N-methylethanaminium pentanoate]"
recorded_measurement = 1600.1


* * *

Conditions: 330.91 K; 101.33 kPa; Liquid; Vibrating tube method
Observation Type: mass density (kg/m3)

[[record]]
molecule = "CCC(=O)[O-].C[NH2+]CCO [2-hydroxy-N-methylethanaminium propionate]"
observation_type = "mass density"
recorded_measurement = 1049.56

[[record]]
molecule = "CC(=O)[O-].C[NH2+]CCO [N-methyl-2-hydroxyethylammonium acetate]"
observation_type = "mass density"
recorded_measurement = 1080.77

[[record]]
molecule = "CCCCC(=O)[O-].C[NH2+]CCO [2-hydroxy-N-methylethanaminium pentanoate]"
observation_type = "mass density"
recorded_measurement = 993.824

[[record]]
molecule = "CC(C)C(=O)[O-].C[NH2+]CCO [2-hydroxy-N-methylethanaminium isobutyrate]"
observation_type = "mass density"
recorded_measurement = 1021.81

[[record]]
molecule = "C[NH2+]CCO.O=C[O-] [2-hydroxy-N-methylethanaminium formate]"
observation_type = "mass density"
recorded_measurement = 1110.12

[[record]]
molecule = "CCCC(=O)[O-].C[NH2+]CCO [N-methyl-2-hydroxyethylammonium butanoate]"
observation_type = "mass density"
recorded_measurement = 1016.84


* * *

Settings: 304.91 K; 101.33 kPa; Liquid; Pulse-echo method
± gives the expanded uncertainty stated by the source.
Catalogue of speed of sound values
Observation Type: speed of sound

[[record]]
compound = "CCC(=O)[O-].C[NH2+]CCO [2-hydroxy-N-methylethanaminium propionate]"
recorded_measurement = "1670.1 ± 2.2 m/s"

[[record]]
compound = "CC(C)C(=O)[O-].C[NH2+]CCO [2-hydroxy-N-methylethanaminium isobutyrate]"
recorded_measurement = "1592.2 ± 2.1 m/s"

[[record]]
compound = "CCCC(=O)[O-].C[NH2+]CCO [N-methyl-2-hydroxyethylammonium butanoate]"
recorded_measurement = "1593.2 ± 2.1 m/s"

[[record]]
compound = "C[NH2+]CCO.O=C[O-] [2-hydroxy-N-methylethanaminium formate]"
recorded_measurement = "1802.2 ± 2.2 m/s"

[[record]]
compound = "CCCCC(=O)[O-].C[NH2+]CCO [2-hydroxy-N-methylethanaminium pentanoate]"
recorded_measurement = "1527.6 ± 2.1 m/s"


* * *

Conditions: 333.91 K; 101.33 kPa; Liquid; Pulse-echo method
Observation Type: speed of sound (m/s)

[[record]]
compound = "CCC(=O)[O-].C[NH2+]CCO [2-hydroxy-N-methylethanaminium propionate]"
value_units = "m/s"
recorded_measurement = 1583.5

[[record]]
compound = "CC(C)C(=O)[O-].C[NH2+]CCO [2-hydroxy-N-methylethanaminium isobutyrate]"
value_units = "m/s"
recorded_measurement = 1509.8

[[record]]
compound = "CCCC(=O)[O-].C[NH2+]CCO [N-methyl-2-hydroxyethylammonium butanoate]"
value_units = "m/s"
recorded_measurement = 1502.5

[[record]]
compound = "CCCCC(=O)[O-].C[NH2+]CCO [2-hydroxy-N-methylethanaminium pentanoate]"
value_units = "m/s"
recorded_measurement = 1438.5

[[record]]
compound = "C[NH2+]CCO.O=C[O-] [2-hydroxy-N-methylethanaminium formate]"
value_units = "m/s"
recorded_measurement = 1746.2


* * *

Catalogue of compounds with associated speed of sound
Conditions: 336.41 K; 101.33 kPa; Liquid; Pulse-echo method
Observation Type: speed of sound (m/s)

[[record]]
compound = "C[NH2+]CCO.O=C[O-] [2-hydroxy-N-methylethanaminium formate]"
observation_type = "speed of sound"
recorded_measurement = 1741.6

[[record]]
compound = "CCCCC(=O)[O-].C[NH2+]CCO [2-hydroxy-N-methylethanaminium pentanoate]"
observation_type = "speed of sound"
recorded_measurement = 1430.9

[[record]]
compound = "CCC(=O)[O-].C[NH2+]CCO [2-hydroxy-N-methylethanaminium propionate]"
observation_type = "speed of sound"
recorded_measurement = 1576

[[record]]
compound = "CC(C)C(=O)[O-].C[NH2+]CCO [2-hydroxy-N-methylethanaminium isobutyrate]"
observation_type = "speed of sound"
recorded_measurement = 1502.6

[[record]]
compound = "CCCC(=O)[O-].C[NH2+]CCO [N-methyl-2-hydroxyethylammonium butanoate]"
observation_type = "speed of sound"
recorded_measurement = 1494.7


* * *

Settings: 322.65 K; 101.33 kPa; Liquid; Pulse-echo method
Observation Type: speed of sound (m/s)

[[record]]
compound = "CC(C)C(=O)[O-].C[NH2+]CCO [2-hydroxy-N-methylethanaminium isobutyrate]"
observation_type = "speed of sound"
value_units = "m/s"
recorded_measurement = 1542

[[record]]
compound = "CCCCC(=O)[O-].C[NH2+]CCO [2-hydroxy-N-methylethanaminium pentanoate]"
observation_type = "speed of sound"
value_units = "m/s"
recorded_measurement = 1473.1

[[record]]
compound = "CCC(=O)[O-].C[NH2+]CCO [2-hydroxy-N-methylethanaminium propionate]"
observation_type = "speed of sound"
value_units = "m/s"
recorded_measurement = 1617.5

[[record]]
compound = "C[NH2+]CCO.O=C[O-] [2-hydroxy-N-methylethanaminium formate]"
observation_type = "speed of sound"
value_units = "m/s"
recorded_measurement = 1767.6

[[record]]
compound = "CCCC(=O)[O-].C[NH2+]CCO [N-methyl-2-hydroxyethylammonium butanoate]"
observation_type = "speed of sound"
value_units = "m/s"
recorded_measurement = 1537.8


* * *

Settings: 300.9 K; 101.33 kPa; Liquid; Pulse-echo method
Observation Type: speed of sound (m/s)

[[record]]
molecule = "CCC(=O)[O-].C[NH2+]CCO [2-hydroxy-N-methylethanaminium propionate]"
value_units = "m/s"
recorded_measurement = 1681.8

[[record]]
molecule = "CCCCC(=O)[O-].C[NH2+]CCO [2-hydroxy-N-methylethanaminium pentanoate]"
value_units = "m/s"
recorded_measurement = 1540.1

[[record]]
molecule = "C[NH2+]CCO.O=C[O-] [2-hydroxy-N-methylethanaminium formate]"
value_units = "m/s"
recorded_measurement = 1809.9

[[record]]
molecule = "CCCC(=O)[O-].C[NH2+]CCO [N-methyl-2-hydroxyethylammonium butanoate]"
value_units = "m/s"
recorded_measurement = 1605.8

[[record]]
molecule = "CC(C)C(=O)[O-].C[NH2+]CCO [2-hydroxy-N-methylethanaminium isobutyrate]"
value_units = "m/s"
recorded_measurement = 1603.5


* * *

Settings: 289.15 K; 101.33 kPa; Liquid; Pulse-echo method
Entries and their speed of sound values follow.
Observation Type: speed of sound (m/s)

[[record]]
compound = "CC(C)C(=O)[O-].C[NH2+]CCO [2-hydroxy-N-methylethanaminium isobutyrate]"
observation_type = "speed of sound"
recorded_measurement = 1637.1

[[record]]
compound = "CCC(=O)[O-].C[NH2+]CCO [2-hydroxy-N-methylethanaminium propionate]"
observation_type = "speed of sound"
recorded_measurement = 1717

[[record]]
compound = "CCCC(=O)[O-].C[NH2+]CCO [N-methyl-2-hydroxyethylammonium butanoate]"
observation_type = "speed of sound"
recorded_measurement = 1643.9

[[record]]
compound = "C[NH2+]CCO.O=C[O-] [2-hydroxy-N-methylethanaminium formate]"
observation_type = "speed of sound"
recorded_measurement = 1833

[[record]]
compound = "CCCCC(=O)[O-].C[NH2+]CCO [2-hydroxy-N-methylethanaminium pentanoate]"
observation_type = "speed of sound"
recorded_measurement = 1577.8


* * *

Conditions: 315.65 K; 101.33 kPa; Liquid; Vibrating tube method
In this section we review reported mass density values for a set of compounds.
Observation Type: mass density (kg/m3)

[[record]]
compound = "C[NH2+]CCO.O=C[O-] [2-hydroxy-N-methylethanaminium formate]"
recorded_measurement = 1118.49

[[record]]
compound = "CCCCC(=O)[O-].C[NH2+]CCO [2-hydroxy-N-methylethanaminium pentanoate]"
recorded_measurement = 1004.4

[[record]]
compound = "CC(=O)[O-].C[NH2+]CCO [N-methyl-2-hydroxyethylammonium acetate]"
recorded_measurement = 1090.26

[[record]]
compound = "CC(C)C(=O)[O-].C[NH2+]CCO [2-hydroxy-N-methylethanaminium isobutyrate]"
recorded_measurement = 1032.01

[[record]]
compound = "CCCC(=O)[O-].C[NH2+]CCO [N-methyl-2-hydroxyethylammonium butanoate]"
recorded_measurement = 1027.43

[[record]]
compound = "CCC(=O)[O-].C[NH2+]CCO [2-hydroxy-N-methylethanaminium propionate]"
recorded_measurement = 1059.84


Sourced from the NIST ThermoML archive (doi:10.1021/je900550v)
